Data credit: ChEMBL document CHEMBL1201862

system: K562; assay: NCI tumour cell line growth inhibition, 48 h
Active and inactive are the calls of the source. Rule as the data show it: active = GI50 up to about 1.1 µM and inactive = higher. Where a SMILES comes first, the peptide text is derived from it. [ ]: non-standard residue; d: D form. The star is where a group is joined. Phe(4-NO2) = N[CH](Cc1ccc([N+](=O)[O-])cc1)C(=O)O; Boc = CC(C)(C)OC(=O)*; OBn = c1ccc(CO*)cc1

{"columns": ["Compound", "GI50"],
 "data": [
  ["COc1cc2c(c(O)c1OC)C(=O)[C@@H]1CCC(=O)N1C2c1ccccc1 (stereo partly specified)", "38.6 µM (inactive)"],
  ["COC(=O)CCC(NC(=O)OC(C)(C)C)C(=O)NC(Cc1ccc([N+](=O)[O-])cc1)C(=O)NCC(=O)OCc1ccccc1 (stereo unspecified) (Boc-Glu(OMe)-[Phe(4-NO2)]-Gly-OBn; configuration not given here)", "> 100 µM (inactive)"],
  ["CC(C)(C(=O)NN)c1ccccc1", "> 100 µM (inactive)"],
  ["CN1C(=O)C(O)CC1c1cccc(F)c1 (stereo unspecified)", "> 100 µM (inactive)"],
  ["Cc1cc(-c2c(Br)cc(C(=O)O)n2C)on1", "> 100 µM (inactive)"],
  ["O=C(O)Cc1ccc(Oc2nc3ccccc3nc2-c2cccs2)cc1", "99.3 µM (inactive)"]
]}

----------
test system: SK-MEL-28; experiment: NCI tumour cell line growth inhibition, 48 h
Active and inactive are the calls of the source. Rule as the data show it: active = GI50 up to about 1.1 µM and inactive = higher.
Classes used: Y = active, N = inactive

{"columns": ["Compound", "Class"],
 "data": [
  ["Cc1occc1C(=S)Nc1ccc(Cl)c(C(=O)OC(C)C2CC2)c1 (configuration not stated)", "N"],
  ["COCC(O)Cn1ccnc1[N+](=O)[O-] (configuration not stated)", "N"],
  ["Sc1ncnc2nc[nH]c12 [MERCAPTOPURINE ANHYDROUS]", "N"],
  ["CCOC(=O)c1c(NS(=O)(=O)c2ccc(Br)cc2)sc2c1CCCC2", "N"],
  ["O=C(Nc1ccc(Cl)c(Cl)c1)C1C(=O)N(c2ccc(Cl)c(Cl)c2)C(=O)/C1=N\\O (configuration not stated)", "N"],
  ["CCOC(=O)[C@@H]1C2C(=C[C@H]3[C@H]1C(=O)N1CCCC[C@H]31)CCCN2C(=O)OCc1ccccc1 (some centres not stated)", "N"],
  ["OC1(c2ccccc2)CC2CCC(C1)N2CCCC1(c2ccc(F)cc2)OCCO1 (configuration not stated)", "N"],
  ["COc1cccc(/C=C/c2cc(OC)c(OC)c(OC)c2)c1", "N"],
  ["CN(C)CCNc1ccc2ncn3c4ccccc4c(=O)c1c23", "N"],
  ["COc1ccc2nc3cc(Cl)ccc3c(Sc3ccc(NC(C)=O)cc3)c2c1", "N"],
  ["C[N+]1=C(c2cccnc2/C=N/O)OCC1(C)C", "N"],
  ["CO[C@]12CC(=O)C3(C(C[C@H]4CC5CC=C6C[C@@H](OC(C)=O)CC[C@]6(OC(C)=O)C5C[C@@]43C)C1)C1C[C@H]3[C@@H]4CC=C5C[C@@H](OC(C)=O)CC[C@]5(OC(C)=O)[C@H]4CC[C@]3(C)C12 (some centres not stated)", "N"],
  ["COc1ccc(OC)c(NC2=NCCO2)c1", "N"],
  ["CCOC(=O)c1ccc(N2C(=O)Cc3ccccc3C2=O)cc1", "N"],
  ["C[C@@H](NC(=O)Nc1cccc(C(=O)Nc2cc(C(C)(C)C)ccc2C(=O)O)n1)c1ccccc1", "N"],
  ["Cc1c(/N=C/C=C/c2ccccc2)c(=O)n(-c2ccccc2)n1C", "N"],
  ["CC1Oc2cc3c(-c4c(O)cc(O)c5c(O)c6c(cc45)OC(C)C(C)C6=O)c(O)cc(O)c3c(O)c2C(=O)C1C (configuration not stated)", "Y"],
  ["NCCNc1ncnc2ccc(Cl)cc12", "N"],
  ["N#Cc1ccc(OCCSCCCCCCCCCCSCCOc2ccc(C#N)cc2)cc1", "N"],
  ["CCOC(=O)c1c(-c2ccccc2)[nH]c2ccc(Cl)cc2c1=O", "N"],
  ["COC(=O)c1ccc(OCc2ccc3nc(-c4ccccc4)c(Cl)nc3c2)cc1", "N"],
  ["Cn1c(=O)c2c(O)cc(N)nc2n(C)c1=O", "N"]
]}

----------
system: SR; test: NCI tumour cell line growth inhibition, 48 h
The source made the active and inactive calls. Cut-off read from the data, not from the text of the source: active = GI50 up to about 1.1 µM and inactive = higher.
Possible outcomes: active, inactive

{"columns": ["Molecule", "Class"],
 "data": [
  ["N#CC(C#N)=c1[nH]c2cccc3c2-c2c(cccc2c3=C(C#N)C#N)[nH]1", "inactive"],
  ["Nc1ccc(-c2nc3cc(F)ccc3s2)cc1Br", "active"],
  ["O=C(CC(=O)N1N=C(c2ccccc2)C(/N=N/c2ccc(Cl)cc2)C1=O)Nc1ccccc1Cl (configuration not stated)", "inactive"],
  ["O=C1c2ccccc2C(=O)N1CCCCCCNOCCCN1C(=O)c2ccccc2C1=O", "inactive"],
  ["Cn1c(=O)n2c(=O)n(C)c(=O)n2c1=O", "inactive"],
  ["CCN(CC)CCN1C(=O)c2cccc3cc(N)cc(c23)C1=O", "inactive"],
  ["O=[N+]([O-])c1ccc(CSc2c3ccccc3nc3ccccc23)cc1", "inactive"]
]}

----------
tested on: MCF7; test: NCI tumour cell line growth inhibition, 48 h
The source made the active and inactive calls. No stated cut-off is given here; in the data, active = GI50 up to about 1.1 µM and inactive = higher.
Possible outcomes: active, inactive

{"columns": ["Smiles repr", "Class"],
 "data": [
  ["CN(C)CCCNC(=O)c1cc(NS(=O)(=O)c2ccc3c(c2)C(=O)c2ccccc2C3=O)cn1C", "inactive"],
  ["CCOC(=O)Nc1cc2c(c(N)n1)N=C(c1ccc(OC)cc1)CN2", "active"],
  ["Cc1c(/N=C/C=C/c2ccccc2)c(=O)n(-c2ccccc2)n1C", "inactive"]
]}

----------
system: A498; test: NCI tumour cell line growth inhibition, 48 h
Activity calls are given as the source filed them. No stated cut-off is given here; in the data, active = GI50 up to about 1.1 µM and inactive = higher.
Listed here are compounds together with their documented GI50.
Parameter: GI50

{"columns": ["Compound", "Observed"],
 "data": [
  ["COc1ccc(CC/N=C2\\OCc3ccccc32)cc1OC", "> 100 µM (inactive)"],
  ["N=C(N)NS(=O)(=O)c1ccc(Nc2c3ccccc3nc3c(C(=O)NNCCO)cccc23)cc1", "> 1 µM (active)"],
  ["CC(=O)NC(C=O)C(O[C@H](C)C(=O)NC(C)C(=O)NC(CCC(N)=O)C(=O)OCc1ccccc1)C(O)C(O)COC(=O)CCNc1c2ccccc2nc2cccc([N+](=O)[O-])c12 (stereo partly specified)", "> 100 µM (inactive)"],
  ["CC(C)OC1OC(CO)C(O)CC1n1cc(F)c(=O)[nH]c1=O (stereo unspecified)", "> 100 µM (inactive)"],
  ["Cc1c(O)oc2ccccc2c1=O", "> 100 µM (inactive)"],
  ["Nc1ccc(-c2nc3cc(F)ccc3s2)cc1Br", "14.7 µM (inactive)"],
  ["CC(C)(C(=O)NN)c1ccccc1", "> 100 µM (inactive)"],
  ["NCCNc1ncnc2ccc(Cl)cc12", "37.9 µM (inactive)"],
  ["CCOc1ccccc1/N=N/C1C(=O)N(C(=O)CC(=O)Nc2ccccc2Cl)N=C1C (stereo unspecified)", "50.1 µM (inactive)"],
  ["CN(C)CCNC(=O)Cn1ccc(=O)c2cc([N+](=O)[O-])ccc21", "> 100 µM (inactive)"],
  ["O=C1SC(SCc2ccccc2)=NC12CC2c1ccccc1 (stereo unspecified)", "25.5 µM (inactive)"]
]}

----------
In this section we review reported GI50 values for a set of molecules.
system: SNB-75; assay: NCI tumour cell line growth inhibition, 48 h
The source made the active and inactive calls. Cut-off read from the data, not from the text of the source: active = GI50 up to about 1.1 µM and inactive = higher.
Parameter: GI50

{"columns": ["Smiles repr", "Target entity", "Observed"],
 "data": [
  ["O=C(NCCN1CCCC1)c1cn2c(ccc3sc4ccccc4c(=O)c32)n1", "SNB-75", "19.1 µM (inactive)"],
  ["COc1cc([C@H]2Oc3cc(O)c4c(=O)cc(-c5ccccc5)oc4c3O[C@@H]2CO)ccc1O", "SNB-75", "16.8 µM (inactive)"],
  ["CC(C)(C(=O)NN)c1ccccc1", "SNB-75", "> 100 µM (inactive)"],
  ["O=C(CCO)OCCCCCC/C=C\\CCCCCC/C=C\\CCCCCCCCOC(=O)CCO", "SNB-75", "19.8 µM (inactive)"],
  ["Cn1c(=O)n2c(=O)n(C)c(=O)n2c1=O", "SNB-75", "> 100 µM (inactive)"],
  ["CC/C(=N/O)c1ccc(Br)s1", "SNB-75", "67.8 µM (inactive)"]
]}

----------
system: OVCAR-8; assay: NCI tumour cell line growth inhibition, 48 h
Activity calls are given as the source filed them. Cut-off read from the data, not from the text of the source: active = GI50 up to about 1.1 µM and inactive = higher.
Entries and their measured GI50 follow.

{"columns": ["Compound", "GI50"],
 "data": [
  ["COC(=O)c1ccc(OCc2ccc3nc(-c4ccccc4)c(Cl)nc3c2)cc1", "48 µM (inactive)"],
  ["CCC1CCc2c(c(=O)oc3c2cc(OC)c2cccc(OC)c23)C1 (centres undefined)", "50.1 µM (inactive)"],
  ["CCCO/N=[N+](\\[O-])N(CC)CC", "> 100 µM (inactive)"],
  ["CC(=O)NC(C=O)C(O[C@H](C)C(=O)NC(C)C(=O)NC(CCC(N)=O)C(=O)OCc1ccccc1)C(O)C(O)COC(=O)CCNc1c2ccccc2nc2cccc([N+](=O)[O-])c12 (some centres undefined)", "4.89 µM (inactive)"],
  ["O=C(O)C(CS)NCc1c2ccccc2nc2ccccc12 (centres undefined)", "32.6 µM (inactive)"],
  ["COc1ccc(CC/N=C2\\OCc3ccccc32)cc1OC", "91.8 µM (inactive)"],
  ["Cc1nn(C(=O)c2ccccc2O)c2c1C(c1ccco1)SC(=N)N2 (centres undefined)", "3.61 µM (inactive)"],
  ["Cc1cc(S(=O)(=O)Nc2nc(N)nc(N3N=CCC3C)n2)c(SCC(=O)O)cc1Cl (centres undefined)", "> 10 µM (inactive)"],
  ["N#CC(C(=O)CCC(=O)C(C#N)c1ccccc1)c1ccccc1 (centres undefined)", "> 100 µM (inactive)"]
]}
